Data provenance is paper PMC11087509.

# Target Desc: purified E. coli 70S ribosome (E. coli (endogenous in BW25113), UniProt P60723 1-201; P61175 1-110; P0ADZ0 1-100; P0A7M6 1-63; P0A7J3 1-165)
# Method Notes: fluorescence polarisation; cf-labeled peptide (10 µL of 40 nmol/L) added to a 2-fold dilution series (22 steps, 10 µL) of pure 70S ribosome, 50S or 30S subunit; ribosome preparation buffer (20 mmol/L HEPES-KOH, 6 mmol/L MgCl2, 30 mmol/L NH4Cl, pH 7.6); 28 ± 1 °C, 90 min; apparent Kd (average over at least two or three sites)
# Run Parameters: both partners purified
[ ]: non-standard residue; d: D form. Gu = N-terminal tetramethylguanidine; Orn = NCCC[C@H](N)C(=O)O
Recorded Endpoint: pKd
Please keep in mind that pKd is minus log10 of the molar concentration; only the number is needed.

- Binder: "Gu-[Orn](5(6)‑carboxyfluorescein)NNRPVYIPRPRPPHPRL-NH2 [cf-Api88 (5(6)-carboxyfluorescein-labeled Api88, Gu-ONNRPVYIPRPRPPHPRL-NH2)]"
  pKd: 5.74

Look up and report measured pKd for this entry: Gu-[Orn](5(6)‑carboxyfluorescein)NNRPVYIPRPRPPHPRL-OH [cf-Api137 (5(6)-carboxyfluorescein-labeled Api137, Gu-ONNRPVYIPRPRPPHPRL-OH)]
5.33
